biological target: nucleolin RBD1,2 (NCL RBD1,2) (UniProt P19338 307-466); assay: fluorescence titration (Cy5 quenching); no ligand; two-site model, KD1; aptamer pre-annealed in 20 mM potassium phosphate pH 6.9, 65 mM KCl (95 C 10 min, ice 10 min); titration temperature not given in the material; settings: protein: recombinant; label: 5'-Cy5; parallel G4, pre-folded in K+
Sequence (P19338 307-466): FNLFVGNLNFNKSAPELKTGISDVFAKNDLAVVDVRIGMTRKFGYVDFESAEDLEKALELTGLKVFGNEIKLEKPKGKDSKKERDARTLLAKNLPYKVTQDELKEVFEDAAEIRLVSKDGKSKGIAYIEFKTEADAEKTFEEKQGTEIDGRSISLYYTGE
MEASURED_QUANTITY: pKd
Scale: negative log10 of molar concentration, which is what pKd denotes.

INPUT: Entry TGGTGGTGGTTGTTGGGTGGTGGTGGT (structured_DNA) [5'-Cy5-AT11-L0] : reported pKd = ?
OUTPUT: 10.92
